assay: soluble on expression in E. coli; label from the status in PepcDB or PDB records
Measurement Type: soluble on expression in E. coli

MGSDKIHHHHHHMVYTTPWNRKIEFGRTMVMGIINVTPDSFFADSRKQSVLEAVETAKKMIEEGADIIDVGGMSTRPGSDPVDEEEELNRVIPVIRAIRSITDVPISVDTYRWRVALKALEAGADIVNDISGYQFEPDIVRVVSENNVPYVLMHIKGTPKTMQENPHYEDVVKEIKEYFTEKIEYLKEKGVNQIVLDPGIGFGKRYEDNLEILRRIDEFKELKLPILIGASRKSFIGITLGNVPPEERLEGTLAVTAYCTMKGVDIIRVHDVLPNKRVIRMMEAILWQRL
not soluble
MPGRFELKPTLAKIWHAPDNFRIMEPLPPMHRRGIIIAAIVLVIGFLLPASETSDSPVVTREAQLDLQSQSQPPTEAQLQAQLVAPQNDPDQVAPVAPEPIQEGQPEEQNQPQTQPFQQDSGIGQQWRSYRVESGKTLAQLFRDHGLPPTDVYAMAQVEGAGKPLSNLKNGQMIKIRQNASGVVTGLTIDGDNGQQVLFTRQPDGSFIRAQ
not soluble

Provenance of the data: the DeepSol protein solubility set
